# maps each entry to its CC50
test: in vitro; conditions: human
attribute measured: CC50 (µM)

COc1nc(N)nc2c1ncn2C1O[C@H](COP(=O)(N[C@@H](C)C(=O)OCC(C)(C)C)Oc2cccc3ccccc23)C[C@@]1(C)O (some centres unmarked) | 44
COC(=O)[C@@H](NP(=O)(OC[C@H]1OC(n2cnc3c(OC)nc(N)nc32)[C@](C)(O)[C@@H]1O)Oc1cccc2ccccc12)C(C)C (some centres unmarked) | 22
CCOc1nc(N)nc2c1ncn2C1O[C@H](COP(=O)(N[C@@H](C)C(=O)OC(C)C)Oc2cccc3ccccc23)[C@@H](O)[C@@]1(C)O (some centres unmarked) | 40
COc1nc(N)nc2c1ncn2C1O[C@H](COP(=O)(N[C@@H](C(=O)OC2CCCCC2)c2ccccc2)Oc2cccc3ccccc23)[C@@H](O)[C@@]1(C)O (some centres unmarked) | 26
CSc1nc(N)nc2c1ncn2C1O[C@H](COP(=O)(N[C@@H](C)C(=O)O[C@@H](C)c2ccccc2)Oc2cccc3ccccc23)[C@@H](O)[C@@]1(C)O (some centres unmarked) | 27
COc1nc(N)nc2c1ncn2C1O[C@H](COP(=O)(N[C@H](C(=O)OC2CCCCC2)c2ccccc2)Oc2cccc3ccccc23)[C@@H](O)[C@@]1(C)O (some centres unmarked) | 22
COc1nc(N)nc2c1ncn2C1O[C@H](COP(=O)(N[C@H](C(=O)OCC(C)(C)C)C(C)C)Oc2cc(C(C)(C)C)cc3ccccc23)[C@@H](O)[C@@]1(C)O (some centres unmarked) | 13
COc1nc(N)nc2c1ncn2C1O[C@H](COP(=O)(N[C@@H](C)C(=O)OCc2ccc(F)cc2F)Oc2cccc3ccccc23)[C@@H](O)[C@@]1(C)O (some centres unmarked) | 15
COc1nc(NCc2ccc(F)cc2)nc2c1ncn2[C@@H]1O[C@H](COP(=O)(N[C@@H](C)C(=O)OCC(C)(C)C)Oc2cccc3ccccc23)[C@@H](O)[C@@]1(C)O (some centres unmarked) | 17
COc1nc(N)nc2c1ncn2C1O[C@H](CO[P@](=O)(N[C@@H](C)C(=O)OCC(C)(C)C)Oc2cccc3ccccc23)[C@@H](O)[C@@]1(C)O (single isomer, unassigned) | 6

* * *

Reported CC50 values for a set of compounds
test: in vitro; conditions: human
attribute measured: CC50

COc1nc(N)nc2c1ncn2C1O[C@H](COP(=O)(N[C@@H](C)C(=O)OC2CCCCC2)Oc2cccc3ccccc23)[C@@H](O)[C@@]1(C)O (stereo partly drawn) | 6 µM
CCOc1nc(N)nc2c1ncn2C1O[C@H](COP(=O)(N[C@@H](C)C(=O)OCc2ccc(F)cc2F)Oc2cccc3ccccc23)[C@@H](O)[C@@]1(C)O (stereo partly drawn) | 17 µM
CCCOC(=O)[C@H](C)NP(=O)(OC[C@H]1OC(n2cnc3c(OC)nc(N)nc32)[C@](C)(O)[C@@H]1O)Oc1cccc2ccccc12 (stereo partly drawn) | 12 µM
COC(=O)[C@@H](C)c1ccc2cc(OP(=O)(N[C@@H](C)C(=O)OCC(C)(C)C)OC[C@H]3OC(n4cnc5c(OC)nc(N)nc54)[C@](C)(O)[C@@H]3O)ccc2c1 (stereo partly drawn) | 19 µM
COc1nc(N)nc2c1ncn2C1O[C@H](COP(=O)(N[C@@H](C)C(=O)OCC(C)(C)C)Oc2cccc3ncccc23)[C@@H](O)[C@@]1(C)O (stereo partly drawn) | > 100 µM
COc1nc(N)nc2c1ncn2C1O[C@H](COP(=O)(N[C@@H](C)C(=O)OC2CCOCC2)Oc2ccc3ncccc3c2)[C@@H](O)[C@@]1(C)O (stereo partly drawn) | > 100 µM

Cited source: patent US8759318B2
